# System: Saccharomyces cerevisiae BY4741 SeMeCo community
# protocol.summary: z-score of subpopulation abundance vs DMSO median, subpopulation auxotrophic for HL; higher = larger share of this subpopulation than in DMSO controls
# reported.conditions: 10 µM; 24 h; SM minimal medium; subpopulation (auxotrophy): HL
Where a name gives a salt, the structure may show the parent alone.
Mark Met for reported z-score of subpopulation abundance of 0.04 or greater; mark Not met for anything smaller.

Dear colleague, could you confirm whether CO/N=C(\C(=O)N[C@@H]1C(=O)N2C(C(=O)O)=C(Cn3ccc(=N)n3CCO)CS[C@H]12)c1csc(N)n1 [Cefoselis Sulfate] has z-score of subpopulation abundance at or above 0.04?
Not met

Dear colleague, could you confirm whether COC(=O)C1=C(C)NC(C)=C(C(=O)OCCN2CCN(C(c3ccccc3)c3ccccc3)CC2)C1c1cccc([N+](=O)[O-])c1 (configuration not stated) [Manidipine 2HCl] has z-score of subpopulation abundance at or above 0.04?
Met

Dear colleague, could you confirm whether CC[C@@]1(O)C(=O)OCc2c1cc1n(c2=O)Cc2cc3cc(O)ccc3nc2-1 [(S)-10-Hydroxycamptothecin] has z-score of subpopulation abundance at or above 0.04?
Met

Dear colleague, could you confirm whether O=c1n(CCCN2CCN(c3cccc(Cl)c3)CC2)nc2ccccn12 [Trazodone HCl] has z-score of subpopulation abundance at or above 0.04?
Not met

Dear colleague, could you confirm whether CCOC(=O)C1=C(C)NC(C)=C(C(=O)OCC)C1c1ccccc1/C=C/C(=O)OC(C)(C)C [Lacidipine] has z-score of subpopulation abundance at or above 0.04?
Not met

Dear colleague, could you confirm whether CN(C)c1cc(NC(=O)CNC(C)(C)C)c(O)c2c1CC1CC3C(N(C)C)C(=O)C(C(N)=O)=C(O)C3(O)C(=O)C1=C2O (configuration not stated) [Tigecycline] has z-score of subpopulation abundance at or above 0.04?
Not met

====

# Test system: Saccharomyces cerevisiae BY4741 SeMeCo community
# protocol.summary: z-score of subpopulation abundance vs DMSO median, subpopulation auxotrophic for LM; higher = larger share of this subpopulation than in DMSO controls
# reported.conditions: 10 µM; 24 h; SM minimal medium; subpopulation (auxotrophy): LM
Where a name gives a salt, the structure may show the parent alone.
Property: z-score of subpopulation abundance; scope: individual compounds
Reply briefly: the number, and no unit.

Take a look at these entries with their results.
Could you share which z-score of subpopulation abundance value was measured for `NC(=O)Cc1cccc(C(=O)c2ccccc2)c1N` ?
1.58

Could you share which z-score of subpopulation abundance value was measured for `CO[C@H]1C[C@@H]2CC[C@@H](C)[C@@](O)(O2)C(=O)C(=O)N2CCCC[C@H]2C(=O)O[C@H]([C@H](C)C[C@@H]2CC[C@@H](OC(=O)C(C)(CO)CO)[C@H](OC)C2)CC(=O)[C@H](C)/C=C(\C)[C@@H](O)[C@@H](OC)C(=O)[C@H](C)C[C@H](C)/C=C/C=C/C=C/1C` ?
5.51

Could you share which z-score of subpopulation abundance value was measured for `CN1CC(=O)N2[C@H](c3ccc4c(c3)OCO4)c3[nH]c4ccccc4c3C[C@@H]2C1=O` ?
3.43

Could you share which z-score of subpopulation abundance value was measured for `COC(=O)Nc1nc2cc(C(=O)c3ccccc3)ccc2[nH]1` ?
1.32

Could you share which z-score of subpopulation abundance value was measured for `Cc1nc(=O)c2cc(CN(C)c3ccc(C(=O)N[C@@H](CCC(=O)O)C(=O)O)s3)ccc2[nH]1` ?
-0.75

Could you share which z-score of subpopulation abundance value was measured for COc1ccnc(C[S+]([O-])c2nc3cc(-n4cccc4)ccc3[nH]2)c1C (stereo not drawn) [Ilaprazole sodium] ?
1.43

Further cases:
Could you share which z-score of subpopulation abundance value was measured for `Cc1ccc2c(Cl)cc(Cl)c(O)c2n1` ?
9.8

Could you share which z-score of subpopulation abundance value was measured for CC1(C)S[C@@H]2[C@H](NC(=O)C(C(=O)O)c3ccccc3)C(=O)N2[C@H]1C(=O)O (stereo partly drawn) [Carbenicillin disodium] ?
-0.02

Could you share which z-score of subpopulation abundance value was measured for OC[C@H]1O[C@H](OCC2O[C@@H](O)[C@H](O)[C@@H](O)[C@@H]2O)[C@H](O)[C@@H](O)[C@H]1O (stereo partly drawn) ?
-0.85

Could you share which z-score of subpopulation abundance value was measured for NC(=O)N1c2ccccc2C=Cc2ccccc21 [Carbamazepine] ?
0.14

Could you share which z-score of subpopulation abundance value was measured for `C#CCN[C@@H]1CCc2ccccc21` ?
-0.61

Could you share which z-score of subpopulation abundance value was measured for CN(C)c1cc(NC(=O)CNC(C)(C)C)c(O)c2c1CC1CC3C(N(C)C)C(=O)C(C(N)=O)=C(O)C3(O)C(=O)C1=C2O (stereo not drawn) ?
-0.64

Could you share which z-score of subpopulation abundance value was measured for CCCCNc1ccc(C(=O)OCCN(C)C)cc1 [Tetracaine HCl] ?
0.43

Could you share which z-score of subpopulation abundance value was measured for `CC[C@@H]1/C=C(\C)C[C@H](C)C[C@H](OC)[C@H]2O[C@@](O)(C(=O)C(=O)N3CCCC[C@H]3C(=O)O[C@H](/C(C)=C/[C@@H]3CC[C@H](Cl)[C@H](OC)C3)[C@H](C)[C@@H](O)CC1=O)[C@H](C)C[C@@H]2OC` ?
4.26

Could you share which z-score of subpopulation abundance value was measured for CN[C@@H]1[C@@H](O)[C@@H](O[C@@H]2[C@@H](O)[C@H](O[C@H]3O[C@H](CN)[C@@H](O)[C@H](O)[C@H]3O)[C@@H](N)C[C@H]2NC(=O)[C@@H](O)CN)OC[C@]1(C)O [Isepamicin Sulphate] ?
-0.22

Could you share which z-score of subpopulation abundance value was measured for `CCC(=O)c1c(O)cc(O)cc1O` ?
0.21

Could you share which z-score of subpopulation abundance value was measured for CN1CCN(CCCN2c3ccccc3Sc3ccc(Cl)cc32)CC1 [Prochlorperazine dimaleate salt] ?
0.75

Could you share which z-score of subpopulation abundance value was measured for CCCCCOc1ccc(-c2cc(-c3ccc(C(=O)N[C@H]4C[C@@H](O)[C@@H](O)NC(=O)[C@@H]5[C@@H](O)[C@@H](C)CN5C(=O)[C@H]([C@H](O)CC(N)=O)NC(=O)[C@H]([C@H](O)[C@@H](O)c5ccc(O)c(OS(=O)(=O)O)c5)NC(=O)[C@@H]5C[C@@H](O)CN5C(=O)[C@H]([C@@H](C)O)NC4=O)cc3)no2)cc1 [Micafungin Sodium] ?
0.72

Could you share which z-score of subpopulation abundance value was measured for `N[C@H]1CONC1=O` ?
1.19

Could you share which z-score of subpopulation abundance value was measured for CCC[C@@H]1C[C@@H](C(=O)N[C@@H]([C@H]2O[C@H](SC)[C@H](O)[C@@H](O)[C@H]2O)[C@@H](C)O)N(C)C1 [Lincomycin HCl] ?
-0.14

====

Property: mean cell size; scope: individual compounds
# Test system: Saccharomyces cerevisiae BY4741 SeMeCo community
# protocol.summary: mean cell size (pixel area) (pixels); higher = larger cells
# reported.conditions: 10 µM; 24 h; SM minimal medium
Counter-ions that a name gives are not always drawn.
Reply briefly: the number, and no unit.

Could you share which mean cell size value was measured for CC[C@H]1OC(=O)C[C@@H](O)[C@H](C)[C@@H](O[C@@H]2O[C@H](C)[C@@H](O)[C@H](N(C)C)[C@H]2O)[C@@H](CCN2C[C@H](C)C[C@H](C)C2)C[C@@H](C)C(=O)/C=C/C(C)=C/[C@@H]1CO[C@@H]1O[C@H](C)[C@@H](O)[C@@H](OC)[C@H]1OC [Tilmicosin phosphate] ?
12.3

Further cases:
Could you share which mean cell size value was measured for `COc1cc2c(cc1OC)-c1cc3ccc(OC)c(OC)c3c[n+]1CC2` ?
12.4

Could you share which mean cell size value was measured for `C[C@@H]1[C@H](O)[C@@H](C)/C=C/C=C/C=C/C=C/C=C/C=C/C=C/[C@H](O[C@@H]2O[C@H](C)[C@@H](O)[C@H](N)[C@@H]2O)C[C@@H]2O[C@](O)(C[C@@H](O)C[C@@H](O)[C@H](O)CC[C@@H](O)C[C@@H](O)CC(=O)O[C@H]1C)C[C@H](O)[C@H]2C(=O)O` ?
9.69

Could you share which mean cell size value was measured for `C[C@@H](O)[C@H]1C(=O)N2C(C(=O)OCOC(=O)C(C)(C)C)=C(SC3CN(C4=NCCS4)C3)[C@H](C)[C@H]12` ?
12.4

Could you share which mean cell size value was measured for COc1c(N2C[C@@H]3CCCN[C@@H]3C2)c(F)cc2c(=O)c(C(=O)O)cn(C3CC3)c12 [Moxifloxacin HCl] ?
12.3

Could you share which mean cell size value was measured for C#C[C@]1(OC(C)=O)CC[C@H]2[C@@H]3CCC4=C[C@@H](OC(C)=O)CC[C@@H]4[C@H]3CC[C@@]21C [Ethynodiol diacetate] ?
12.3

Could you share which mean cell size value was measured for `O=C(O)CCNC(=O)c1ccccc1` ?
12.6
